assay: Stability in organic medium (dimethyl sulfoxide) by UV-Vis spectroscopy; assay type: physicochemical; conditions: time 6 h, band 289-300 nm (λmax in column head)
resultType: Relative variation of the maximum absorbance of the π→π* transitions (%)
Return type: number; implicit unit %.

molecule	reported
COc1cc[n+]2c(c1)-c1cc(O)cc[n+]1[Ru-]2([CH]1C=CC=C1)[PH](c1ccccc1)(c1ccccc1)c1ccccc1.O=S(=O)([O-])C(F)(F)F (centres unmarked) [compound 10]	2.8
CC(=O)C1=C[CH]([Ru-]2([PH](c3ccccc3)(c3ccccc3)c3ccccc3)[n+]3ccccc3-c3cccc[n+]32)C=C1.O=S(=O)([O-])C(F)(F)F (centres unmarked) [compound 5]	−1.5
O=C(Cc1ccccc1)C1=C[CH]([Ru-]2([PH](c3ccccc3)(c3ccccc3)c3ccccc3)[n+]3ccccc3-c3cccc[n+]32)C=C1.O=S(=O)([O-])C(F)(F)F (centres unmarked) [compound 9]	−0.2
CCC(=O)C1=C[CH]([Ru-]2([PH](c3ccccc3)(c3ccccc3)c3ccccc3)[n+]3ccccc3-c3cccc[n+]32)C=C1.O=S(=O)([O-])C(F)(F)F (centres unmarked) [compound 8]	−0.2

We now examine a further molecule.
Please look at this molecule and report its Relative variation of the maximum absorbance of the π→π* transitions: NNC(=O)C1=C[CH]([Ru-]2([PH](c3ccccc3)(c3ccccc3)c3ccccc3)[n+]3ccccc3-c3cccc[n+]32)C=C1.O=S(=O)([O-])C(F)(F)F (centres unmarked) [compound 4]
−0.2
